Every entry's value here was drawn from PubChem BioAssay.

Listed next: entries and their corresponding z-score.
# test.details: RPMI8226 myeloma cell viability, profiling panel, resazurin fluorescence, basal, 24 h, PK04 Diversity Set (AID 1180);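 also: RPMI8826 multiple myeloma cell line at 5000 cells per well; test concentration not given here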
# study.conditions: higher = more signal
// return just the number, without any unit appended

Challenge: // query z-score value for entry NCCCCCNC(=O)[C@@H]1C[C@@H]2C(=O)N[C@@H](CCCCN)C(=O)N2[C@@H]1c1cccc(OCCO)c1
Response given: 1

Challenge: Continue with COCCOC(=O)N1C(=O)[C@@]2(c3cc(C#CC4(O)CCCCCC4)ccc31)[C@H](C(N)=O)[C@H]1C(=O)O[C@H](c3ccccc3)[C@H](c3ccccc3)N1[C@@H]2c1ccc(O)cc1
Response given: -1.73

Challenge: Thanks! And C=C(CCCC)C(=O)CC[C@@H](OC(=O)c1cccnc1)c1ccccc1OCCO ?
Response given: -2.39

Challenge: Can you check CC(=O)N1Cc2ccccc2C[C@]2(N=C(c3ccc(OCCCO)cc3)O[C@@H]2c2ccccc2)C1=O next?
Response given: -3.96

Challenge: CCOC(=O)C1=CC[C@@H](c2ccccc2)N(S(=O)(=O)c2ccc(C)cc2)C1 , same question.
Response given: -2.53

Challenge: Param item: COc1cc(CO)cc(I)c1O[C@H]1C=C(C(=O)NCCO)C[C@@H](N(Cc2ccc(F)cc2)C(=O)C2CCCO2)[C@@H]1O (stereo partly specified)
Response given: 0.562

Challenge: Proceed to CN(C)CCCCNC(=O)[C@H]1C[C@H]2C(=O)N[C@@H](CCCCN(C)C)C(=O)N2[C@H]1c1cccc(OCCO)c1
Response given: 0.45

Challenge: Input CC=CC(O)C1C=CC2C(=O)N(C)C(=O)C2N1N1CCCCC1 (stereo unspecified)
Response given: -1.36

---
Challenge: Form field: reported z-score of Cc1ccc(S[C@]2(C(=O)NC(C)C)CC(=O)N(C3Cc4ccccc4C3)[C@@H]2c2ccc(CO)cc2I)cc1
Response given: -2.08

Challenge: Can you handle COc1ccc([Si](C)(C)[C@@H]2[C@@H](CC(=O)N3CCC[C@H]3CO)O[C@]3(C(=O)N(Cc4ccc(N5C(=O)c6cccc7cccc5c67)cc4)c4ccccc43)[C@H]2C)cc1 next?
Response given: -4.75

Challenge: Next compound: CC(C)c1ccc(NN2C(C(O)c3ccco3)C=CC3C(=O)N(c4ccccc4)C(=O)C32)cc1 (stereo unspecified)
Response given: -0.695

Challenge: Now try COC(=O)C1(Cc2ccccc2)C=C2C(=C(c3ccccc3)C(=O)C2C)CN1 (stereo unspecified) .
Response given: -1.78

Challenge: Repeat with CCOC(=O)C1=CC[C@@H](c2ccc([N+](=O)[O-])cc2)N(S(=O)(=O)c2ccc(C)cc2)[C@H]1c1ccccc1
Response given: 0.546

Challenge: What would you report for Cc1ccc(F)cc1S(=O)(=O)N[C@@H]1CCN(Cc2ccc(OC(C)C)cc2)C1 ?
Response given: -0.945

Challenge: And then CC(C)OC(=O)CC(=O)CC(O)c1cccc(C#N)c1 (stereo unspecified) , what is it?
Response given: -0.0069

Challenge: Please give the result for CC(C)CNC(=O)[C@@]1(c2ccc([N+](=O)[O-])cc2)CC(=O)N(C2CCCCC2)[C@@H]1c1ccc(CO)cc1I too.
Response given: 0.447

----------
Catalogue of composite z-score values
# System: PRMT1 (protein arginine N-methyltransferase 1)
# test.details: PRMT1 binders on small-molecule microarrays, primary screen, biochemical, small-molecule microarray, 635 nm fluorescence (AID 1088);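 also: binding of Prmt1 protein to compounds spotted on small-molecule microarray slides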
# study.conditions: small-molecule microarray binding, higher = more signal

In the examples that follow, each entry is paired with its recorded composite z-score.
Challenge: Request body: readout composite z-score, system PRMT1 (protein arginine N-methyltransferase 1), query COCCCNC(=O)[C@@]1(Sc2ccc(C)cc2)CC(=O)N(Cc2cc(C(F)(F)F)cc(C(F)(F)F)c2)[C@@H]1c1ccc(CO)cc1 . Return the value.
Response given: 1.54

Challenge: What do you have for COCCCNC(=O)[C@@]1(Sc2ccc(C)cc2)CC(=O)N(C2Cc3ccccc3C2)[C@@H]1c1ccc(CO)cc1I ?
Response given: -0.649

Challenge: Now consider O=C1NC(=O)C2C1C=CC(C(O)c1ccc(Br)cc1)N2Nc1ccccn1 (configuration not stated) .
Response given: 0.215

Challenge: Also, C[C@H]1C2=C3C(CC[C@H]4C(OCc5ccc(F)cc5C(F)(F)F)OC[C@](C)([C@@H]34)N(C(=O)OC(C)(C)C)C2)C(CO)C1CO (some centres not stated) please.
Response given: 0.889

Challenge: Repeat for the following molecule: COCCOC(=O)N1C(=O)[C@@]2(c3cc(C#CC4(O)CCCCCC4)ccc31)[C@H](C(N)=O)[C@H]1C(=O)O[C@H](c3ccccc3)[C@H](c3ccccc3)N1[C@@H]2c1ccc(O)cc1
Response given: 1.55

Challenge: Input COCCOC(=O)N1C(=O)[C@@]2(c3ccccc31)[C@H](c1ccc(OCCO)cc1)N1[C@H](c3ccccc3)[C@H](c3ccccc3)OC(=O)[C@H]1[C@@H]2C(=O)Nc1nc2ccccc2s1
Response given: 1.45

Continue with the next molecule.
Challenge: Requested read-out composite z-score, target or system PRMT1 (protein arginine N-methyltransferase 1), entry O=C1NC(=O)C2C1C=CC(C(O)c1ccc3c(c1)OCO3)N2Nc1ccccn1 (configuration not stated)
Response given: 0.227
